Molecular target: T1, SCAF4-CID R71A (human, UniProt O95104 1-139, R71A)
T1 sequence: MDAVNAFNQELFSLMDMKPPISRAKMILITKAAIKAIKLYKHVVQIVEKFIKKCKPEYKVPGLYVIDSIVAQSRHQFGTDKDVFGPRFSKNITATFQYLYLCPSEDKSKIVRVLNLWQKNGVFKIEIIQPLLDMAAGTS
Assay: fluorescence polarization
assay_readout: Kd (nM)
Return type: number; implicit unit nM.

Give the value of Kd reported for the following: GTGGG (ssDNA) [SCAF4_LS (D2_5nt)] 786
